Each item that follows carries a reported EC50 (read off the curve).
Target: human OX40 with mouse CRD4 (human with mouse CRD4) (UniProt P43489)
Sequence (P43489 other isoform, or with tags, fused parts or gaps limits assumed): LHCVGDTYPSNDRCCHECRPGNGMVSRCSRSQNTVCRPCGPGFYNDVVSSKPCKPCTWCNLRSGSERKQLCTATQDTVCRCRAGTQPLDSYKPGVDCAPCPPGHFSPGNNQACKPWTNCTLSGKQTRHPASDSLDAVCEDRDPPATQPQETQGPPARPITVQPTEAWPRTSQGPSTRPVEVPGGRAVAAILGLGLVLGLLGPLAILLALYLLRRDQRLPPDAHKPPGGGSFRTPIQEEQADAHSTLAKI
Test: flow cytometry, ExpiCHO-S cells with human OX40 carrying mouse CRD4
# value in µg/mL; strip the unit string

IgG1-CD134-RG7888 (antibody, INN chains, looked up, V domains shown, IgG1) VH: EVQLVQSGAEVKKPGASVKVSCKASGYTFTDSYMSWVRQAPGQGLEWIGDMYPDNGDSSYNQKFRERVTITRDTSTSTAYLELSSLRSEDTAVYYCVLAPRWYFSVWGQGTLVTVSS VL: DIQMTQSPSSLSASVGDRVTITCRASQDISNYLNWYQQKPGKAPKLLIYYTSRLRSGVPSRFSGSGSGTDFTLTISSLQPEDFATYYCQQGHTLPPTFGQGTKVEIK :: 0.01
IgG1-CD134-ABBV368 (antibody, INN chains, looked up, V domains shown, IgG1) VH: EVQLVESGGGLVQPGGSLRLSCAASGFTFSRYGMSWVRQAPGKGLELVATINSNGGRTYYPDSVKGRFTISRDNAKNSLYLQMNSLRAEDTAVYYCAREGITTAYAMDYWGQGTTVTVSS VL: DIVMTQSPDSLAVSLGERATINCKASQSVDYDGDSYMHWYQQKPGQPPKLLIYAASILESGVPDRFSGSGSGTDFTLTISSLQAEDVAVYYCQQSNEDPRTFGGGTKVEIK :: 0.005
IgG1-CD134-MEDI0562 (antibody, INN chains, looked up, V domains shown, IgG1) VH: QVQLQESGPGLVKPSQTLSLTCAVYGGSFSSGYWNWIRKHPGKGLEYIGYISYNGITYHNPSLKSRITINRDTSKNQYSLQLNSVTPEDTAVYYCARYKYDYDGGHAMDYWGQGTLVTVSS VL: DIQMTQSPSSLSASVGDRVTITCRASQDISNYLNWYQQKPGKAPKLLIYYTSKLHSGVPSRFSGSGSGTDYTLTISSLQPEDFATYYCQQGSALPWTFGQGTKVEIK :: 0.06

Query binder follows.
**Q:** I would be grateful if you could share the reported EC50 (read off the curve) for IgG1-CD134-GBR830 (antibody, INN chains, looked up, V domains shown, IgG1) VH: QVTLKESGPALVKPTQTLTLTCSFSGFSLSTSGMGVGWIRQPPGKALEWIAHIWWDDDKYYNTALKTRLTISKDTSKNQVVLTMTNMDPVDTATYYCARIDWDGFAYWGQGTLVTVSS VL: EIVLTQSPATLSLSPGERATLSCRASSSVSYMHWYQQKPGQAPRPWIYATSNRATGIPARFSGSGSGTDYTLTISSLEPEDFAVYYCQQWSSNPWTFGQGTKVEIK .
**A:** 0.06
